system: T1, CD27 expressed on the cell surface (HT1080_CD27 cells) (human, UniProt P26842 20-260); further: test concentration or dose not given here
T1 sequence (looked up): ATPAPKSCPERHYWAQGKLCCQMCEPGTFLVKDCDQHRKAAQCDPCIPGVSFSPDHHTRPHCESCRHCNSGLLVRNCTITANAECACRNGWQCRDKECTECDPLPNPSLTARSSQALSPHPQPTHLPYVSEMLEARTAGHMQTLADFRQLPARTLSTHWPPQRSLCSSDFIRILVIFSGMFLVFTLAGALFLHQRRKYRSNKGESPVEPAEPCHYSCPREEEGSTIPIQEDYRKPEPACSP
assay-info: cell-based or functional assay
Use 1 (yes) when the recorded IL-8 [abs. corr.] is no lower than 0.5 abs. corr.; use 0 (no) when it is lower.

>  <binder>
P018.S.09.A.D02 (antibody, V domains shown, V regions on human Ig constant parts; also called AB27_150) VH: QSLEESGGRLVTPGTPLTLTCTASGFSLSKYDMGWFRQAPGKGLEWIGMIGASDRTYYASWVKGRFTISKTSTTVDLRITSPTTEDTATYFCAREYPDARGYYYNLWGPGTPVTVSS VL: ALVMTQTPASVEAAVGGTVTINCQASQSISDLLAWYQQKPGQPPKLLIYDASDLASGVPSRFSGSGSGTEFTLTISGVQSDDAATYYCQQGYSITNVDNVFGGGTEVVVK

>  <class-assignment>
1 (yes)

$$$$
>  <binder>
P018.S.07.A.B03 (antibody, V domains shown, V regions on human Ig constant parts; also called AB27_115) VH: QSVEESGGRLVTPGTPLTLTCTVSGFSLSSYAMGWVRQAPGKGLEWIGDIYGSGSTYYASWAKGRFTFSRTSTTVDLKMTSLTTEDTATYFCARSKGYNYNLWNLWGQGTLVTVSS VL: DIVMTQTPSSVSAAVGGTVTINCQASQNIYTNLAWYQQKPGQRPKLLIYDASDLASGVPSRFSGSGSGTEYTLTISDLESADAATYYCQTYSYSGSSSANPFGGGTEVVVK

>  <class-assignment>
1 (yes)

$$$$
>  <binder>
P018.S.10.A.H01 (antibody, V domains shown, V regions on human Ig constant parts; also called AB27_184) VH: QEQLEESGGDLVKPGASLTLTCTASGFSFSSDYDMCWVSQAPGKGLEWIACIIGGSSDSTWYASWAKGRFTISKTSSTTVTLQVTGLTAADTATYFCARNVGFSYYDLWGPGTLVTVSS VL: AQVLTQTPSPVSAAVGGTVTINCQASQSLYNNKNLAWYQQKPGQPPKLLIYYASTLASGVSSRFKGSGSGTQFTLTISGVQSDDAATYYCQGEFSCSSGDCFAFGGGTEVVVK

>  <class-assignment>
0 (no)

$$$$
>  <binder>
P018.S.06.A.E02 (antibody, V domains shown, V regions on human Ig constant parts; also called AB27_105) VH: QSLEESGGRLVTPGTPLTLTCTVSGIDLNNNAMTWVRQAPGEGLEWIGIISTADTTSYASWTKGRFTISKTSTTVDLKITSPTTEDTATYFCARAAYFSYGYFNLWGQGTLVTVSS VL: DIVMTQTPASVEAAVGGTVTIKCQASQNIGNALAWYQQKSGQPPKLLIYGASTLASGVPSRFKGSGSGTEFTLTISDLESADATTYFCQSYVYSDGNVFGGGTEVVVK

>  <class-assignment>
1 (yes)

$$$$
>  <binder>
P018.S.01.A.B05 (antibody, V domains shown, V regions on human Ig constant parts; also called AB27_6) VH: QEQLEESGGRLVTPGGTLTLTCTASGFSLSSYDMSWVRQAPGKGLEWIGYIWSDGNTDYATWAAGRFTASRASTTVDLKMTSLTTEDTATYFCARGYTGFFLWGPGTLVTVSS VL: DVVMTQTPSSVSAAVGGTVTIKCQASQSIGSSYLSWYQQKPGQPPKLLIYKTSTLASGVPSRFKGSGSGTEFTLTISDLESDDAATYYCQCTYYGSSWRVAFGGGTEVVVK

>  <class-assignment>
0 (no)

$$$$
